Where do the numbers come from? From the RNAGym collection of RNA variant scans (doi:10.1101/gr.219683.116).

B1: mRNA-splicing (parent)
chain: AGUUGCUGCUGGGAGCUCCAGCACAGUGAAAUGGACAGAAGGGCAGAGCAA

- Variants of: B1
- Measurement Notes: exon inclusion enrichment index; higher = more inclusion; WT1 exon 5 minigene, HEK293
Could you label it yes (1) if measured exon inclusion enrichment index is 0.7 or higher, and no (0) otherwise?

Prompt: Quick check, exon inclusion enrichment index >= 0.7? AGUUCACACAGGGAGCUCCAGCACAGUUUAAUGGACAGAAGGGCAGAGCAA
Completion: no (0)

Prompt: Record: AGUUCGCGCCGGGAGCUCCAGCACAGUGACCUGGACAGAAGGGCAGAGCAA
Completion: yes (1)

Prompt: Record: AGUUUCACUUGGGAGCUCCAGCACAGUGAAAUGGACAGAAGGGCAGAGCAA
Completion: no (0)

Prompt: Record: AGUUAUAUAUGGGAGCUCCAGCACAGUGAAAUGGACAGAAGGGCGUAGCAA
Completion: no (0)

Prompt: Record: AGUUUUGUUUGGGAGCUCCAGCACAGUGAAAUGGACAGAAGGGCAGAGCAA
Completion: no (0)

Prompt: Record: AGUUGCUGCUGGGAGCUCCCUCACAGUGAAAUGGACAGAAGGGCAGAGCAA
Completion: yes (1)

Prompt: Record: AGUUGCUGCUGGGAGCUCCAGCACAGUGAAAUGGUCAGAAGGGCAGAGCAA
Completion: no (0)

Prompt: Record: AGUUUCUUUUGGGAGCUCCACAACAGUGAAAUGGACAGAAGGGCAGAGCAA
Completion: no (0)

Prompt: Record: AGUUCUUCUCGGGAGCUCCAGCACAGUGAAAUGGACAGAAGUUCAGAGCAA
Completion: yes (1)

Prompt: Record: AGUUCUUCUCGGGAGCUCCAGCACAGUGAAAGAGACAGAAGGGCAGAGCAA
Completion: no (0)

Prompt: Record: AGUUGACGACGGGAGCUCCAGCACAGUGAAAUGGACAGAAGGGCUUAGCAA
Completion: yes (1)

Prompt: Record: AGUUCUUCUCGGGAGCUCCAGCACAGUGAAAUGAGCAGAAGGGCAGAGCAA
Completion: yes (1)

Prompt: Record: AGUUUCUUUUGGGAGCUCCAGCACAGUGAAAUGGACAGAUUGGCAGAGCAA
Completion: no (0)

Prompt: Record: AGUUGACGACGGGAGCUCCAGCACUUUGAAAUGGACAGAAGGGCAGAGCAA
Completion: yes (1)

Prompt: Record: AGUUACCACCGGGAGCUCCAGCACAGUGAAAUGGACAGAAGGCGAGAGCAA
Completion: yes (1)

Prompt: Record: AGUUACCACCGGGAGCUCCAGCACCUUGAAAUGGACAGAAGGGCAGAGCAA
Completion: yes (1)

Prompt: Record: AGUUACCACCGGGAGCUCCAGCACAGUGAAAAGGACAGAAGGGCAGAGCAA
Completion: yes (1)

Prompt: Record: AGUUGCUGCUGGGAGCUUAAGCACAGUGAAAUGGACAGAAGGGCAGAGCAA
Completion: no (0)

Prompt: Record: AGUUCUUCUCGGGAGCUCCAGCACAAAGAAAUGGACAGAAGGGCAGAGCAA
Completion: yes (1)

Prompt: Record: AGUUCGCGCCGGGACUUCCAGCACAGUGAAAUGGACAGAAGGGCAGAGCAA
Completion: yes (1)

Prompt: Record: AGUUAGGGAUGGGAGCUCCAGCACAGUGAAAUGGACAGAAGGGCGUAGCAA
Completion: no (0)

Prompt: Record: AGUUCGCGCCACGAGCUCCAGCACAGUGAAAUGGACAGAAGGGCAGAGCAA
Completion: yes (1)

Prompt: Record: AGUUGAAGAAGGGAGAUCCAGCACAGUGAAAUGGACAGAAGGGCAGAGCAA
Completion: no (0)
